Source: patent US20220242905A1

# Test system: Enterococcus faecalis ATCC29121
# Format: cell-based
# Setup conditions: ATCC29121, 24 h
Measured metric: Minimal inhibitory concentration (MIC) E. faecalis ATCC29121

Query CC(=O)N[C@@H](CCCCN)c1nc(C)sc1C(=O)N[C@@H](CC(C)C)c1nc(CCCCN)sc1C(=O)N[C@@H](C)c1nc(CC(C)C)sc1C(=O)N[C@@H](CCCCN)c1nc(C)sc1C(=O)N[C@@H](CC(C)C)c1nc(CCCCN)sc1C(=O)N[C@@H](C)c1nc(CC(C)C)sc1C(=O)N[C@@H](CCCCN)c1nc(C)sc1C(=O)N[C@@H](CC(C)C)c1nc(CCCCN)sc1C(=O)N[C@@H](C)c1nc(CC(C)C)sc1C(=O)N[C@@H](CCCCN)c1nc(C)sc1C(=O)N[C@@H](CC(C)C)c1nc(CCCCN)sc1C(=O)N[C@@H](C)c1nc(CC(C)C)sc1C(N)=O [Oligomer 7] yields Minimal inhibitory concentration (MIC) E. faecalis ATCC29121 of 10.4 µM

Query CC(=O)N[C@@H](CCCCN)c1nc(C)sc1C(=O)N[C@@H](C)c1nc(CCCCN)sc1C(=O)N[C@@H](C)c1nc(C)sc1C(=O)N[C@@H](CCCCN)c1nc(C)sc1C(=O)N[C@@H](C)c1nc(CCCCN)sc1C(=O)N[C@@H](C)c1nc(C)sc1C(N)=O [Oligomer 2] yields Minimal inhibitory concentration (MIC) E. faecalis ATCC29121 of >150 µM

Query CC(=O)N[C@@H](CCCCN)c1nc(C)sc1C(=O)N[C@@H](C)c1nc(CCCCN)sc1C(=O)N[C@@H](C)c1nc(C)sc1C(=O)N[C@@H](CCCCN)c1nc(C)sc1C(=O)N[C@@H](C)c1nc(CCCCN)sc1C(=O)N[C@@H](C)c1nc(C)sc1C(=O)N[C@@H](CCCCN)c1nc(C)sc1C(=O)N[C@@H](C)c1nc(CCCCN)sc1C(=O)N[C@@H](C)c1nc(C)sc1C(=O)N[C@@H](CCCCN)c1nc(C)sc1C(=O)N[C@@H](C)c1nc(CCCCN)sc1C(=O)N[C@@H](C)c1nc(C)sc1C(N)=O [Oligomer 4] yields Minimal inhibitory concentration (MIC) E. faecalis ATCC29121 of >150 µM

Query CC(=O)N[C@@H](CCCCN)c1nc(C)sc1C(=O)N[C@@H](C)c1nc(C)sc1C(=O)N[C@@H](C)c1nc(CCCCN)sc1C(=O)N[C@@H](C)c1nc(C)sc1C(=O)N[C@@H](C)c1nc(CCCCN)sc1C(=O)N[C@@H](CCCCN)c1nc(C)sc1C(=O)N[C@@H](C)c1nc(CCCCN)sc1C(=O)N[C@@H](CCCCN)c1nc(C)sc1C(=O)N[C@@H](C)c1nc(C)sc1C(=O)N[C@@H](C)c1nc(C)sc1C(=O)N[C@@H](C)c1nc(CCCCN)sc1C(=O)N[C@@H](CCCCN)c1nc(C)sc1C(N)=O [Oligomer 5] yields Minimal inhibitory concentration (MIC) E. faecalis ATCC29121 of >150 µM

Query CC(=O)N[C@@H](CCCCN)c1nc(C)sc1C(=O)N[C@@H](C)c1nc(CCCCN)sc1C(=O)N[C@@H](C)c1nc(C)sc1C(N)=O [Oligomer 1] yields Minimal inhibitory concentration (MIC) E. faecalis ATCC29121 of >150 µM

Query CC(=O)N[C@@H](CCCNC(=N)N)c1nc(C)sc1C(=O)N[C@@H](C)c1nc(CCCNC(=N)N)sc1C(=O)N[C@@H](C)c1nc(C)sc1C(=O)N[C@@H](CCCNC(=N)N)c1nc(C)sc1C(=O)N[C@@H](C)c1nc(CCCNC(=N)N)sc1C(=O)N[C@@H](C)c1nc(C)sc1C(=O)N[C@@H](CCCNC(=N)N)c1nc(C)sc1C(=O)N[C@@H](C)c1nc(CCCNC(=N)N)sc1C(=O)N[C@@H](C)c1nc(C)sc1C(=O)N[C@@H](CCCNC(=N)N)c1nc(C)sc1C(=O)N[C@@H](C)c1nc(CCCNC(=N)N)sc1C(=O)N[C@@H](C)c1nc(C)sc1C(N)=O [Oligomer 9] yields Minimal inhibitory concentration (MIC) E. faecalis ATCC29121 of 20.8 µM
